experiment: S. cerevisiae growth inhibition in permissive medium (OD615), pilot counter-assay for S. cerevisiae lifespan shortening project, permissive growth control (AID 705); conditions: OD615, 24 h, at 10 µM, active compounds read high
Observation Type: growth inhibition (%)
# unit: % | format: bare number

Input line: Given CC1=C(C(=O)Nc2ccccc2)C(c2ccccn2)n2nc(CCCO)nc2N1 (configuration not stated) , state its recorded growth inhibition.
Output line: -14.1

Input line: For "CC(C)(C)NC(=O)CSc1nc(O)cc(=O)n1-c1ccccc1F" , what is its reported growth inhibition?
Output line: -5.45

Input line: Recorded growth inhibition for "CCCN(CCC)C(=O)CCS(=O)(=O)c1cccc2nsnc12" , please?
Output line: -9.5

Input line: State the recorded growth inhibition for this entry: CC(O)CSc1nc2c(c(=O)n(C)c(=O)n2C)n1CCCc1ccccc1 (configuration not stated)
Output line: -7.62

Input line: Any idea what its growth inhibition is? The molecule is "CCCOC(=O)c1ccc(NC(=O)c2ccoc2C)cc1"
Output line: -3.79

Input line: Recorded growth inhibition of "N#Cc1nc(-c2ccc(F)cc2)oc1NCCN1CCOCC1" , please.
Output line: -0.47

Input line: Recorded growth inhibition of "O=C(OCC(=O)c1ccc[nH]1)c1ccc(S(=O)(=O)N2CCCCC2)cc1" , please.
Output line: -15.2

Input line: Recorded growth inhibition for "Cn1cc(S(=O)(=O)N2CCN(Cc3ccccc3)CC2)c(=O)n(C)c1=O" , please?
Output line: -11.9

Input line: Item under review: "CCCN1CCC(N(C)CCc2ccc(OC)c(OC)c2)CC1" . Reported growth inhibition?
Output line: -7.87

Input line: // lookup growth inhibition for CCCCN=CC1=C(O)C(C(=O)OC)C(C)(C)CC1=O (configuration not stated)
Output line: -1.01

Input line: What measured growth inhibition goes with O=C1NCCCC1C(=O)NCCNC(=O)C(F)(F)F (configuration not stated) ?
Output line: -4.04

Input line: Returns the measured growth inhibition for the input molecule. Input: "Cc1cc2cc(CNC(=O)C3CCCC3)ccc2n1C"
Output line: -3.94

* * *

assay: reduced viability of SK-BR-3 breast cancer cells – cell-based, 24 h, human, pilot screen (AID 572); conditions: SK-BR-3 viability, CellTiter-Glo luminescence, at 10 µM, active compounds read low;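 further: compound exposure lasted between 18 and 24 h rather than exactly 24 h; 100% = carrier-treated control wells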
Lab note - cut at 90% for viability: satisfied if strictly below, not satisfied if not.

Input line: hey, is viability for "Cn1c(C(=O)NCCCN2CCN(c3ccc(F)cc3)CC2)cc2c(=O)n(C)c3ccccc3c21" lower than 90% or not?
Output line: satisfied

Input line: Given "Cc1cccc(-n2ncc3c(NCc4cccnc4)ncnc32)c1" , is recorded viability strictly lower than 90%?
Output line: not satisfied

Input line: Dear reviewer, please state whether COc1ccccc1NC(=O)C1(C)Cc2ccccc2C(=O)O1 (stereo not given) has viability strictly beneath 90%.
Output line: not satisfied

Input line: Lab note: viability threshold 90%. Does this compound come in strictly under it? CCC1CCCCN1C(=O)CSc1nnc(-c2ccc(OC)cc2)o1 (stereo not given)
Output line: not satisfied

Input line: API: query returns whether the compound falls strictly under 90% in viability. Query: "CC(=O)Nc1ccc(S(=O)(=O)N2CCN(C(=O)CCC3CCCC3)CC2)cc1"
Output line: satisfied

Input line: # check: viability < 90% for CCCN1CC23C=CC(O2)C(C(=O)O)C3C1=O (stereo not given)
Output line: satisfied

Input line: viability strictly < 90% for this compound? "Cc1ccc(N(C)C(=O)N2CCN(c3ccccn3)CC2)cc1"
Output line: not satisfied
